I'd be grateful if you could share measured MIC for these entries.
System: Candida albicans
Experiment: Antifungal activity against Candida albicans
Assay type: functional, organism-based

Name the reported MIC value associated with the compound C=CC(C)(C)c1cc(/C=C/C(=O)c2ccc(O)cc2)c(OC)cc1O
62.4 to 150 µM

Fill blank: measured MIC of the compound O=c1c(O)c(-c2ccc(O)cc2)oc2cc(O)cc(O)c12 is ____.
256 to 512 µg/mL

# input compound: OC(Cn1cncn1)(Cn1cncn1)c1ccc(F)cc1F ; wanted: its MIC
5.1 to 62.5 µg/mL

Can you look up the measured MIC of O=c1c(O[C@@H]2O[C@@H](CO)[C@H](O)[C@H]2O)c(-c2ccc(O)c(O)c2)oc2cc(O)cc(O)c12 for me?
2 to 32 µg/mL

====

Test system: Candida albicans
Assay: Antifungal activity against Candida albicans 498 by microdilution method
Assay type: functional
assayReadout: MIC

For the compound C[C@@H]1O[C@@H](Oc2c(-c3ccc(O)c(O)c3)oc3cc(O)cc(O)c3c2=O)[C@H](O)[C@H](O)[C@H]1O , what MIC is on record?
> 83 µg/mL

Given the compound O=c1cc(-c2ccccc2)oc2ccccc12 , what is its reported MIC?
> 83 µg/mL

Dear colleague, I am looking for the recorded MIC of the following compound: O=c1c(O)c(-c2ccccc2)oc2cc(O)cc(O)c12
> 83 µg/mL

# MIC lookup, item O=c1cc(-c2ccc(O)c(O)c2)oc2cc(O)cc(O)c12
> 83 µg/mL

Entry O=c1c(O)c(-c2cc(O)c(O)c(O)c2)oc2cc(O)cc(O)c12 has what MIC?
16 to 64 µg/mL

====

Test system: Nakaseomyces glabratus
Experiment: Antifungal activity against Candida glabrata 510 by microdilution method
Type: functional
Assignment: determine reported MIC for the given molecules.

Given the molecule O=c1c(O)c(-c2cc(O)c(O)c(O)c2)oc2cc(O)cc(O)c12 , what is its reported MIC?
3.9 to 15.7 µg/mL

Given the entry O=c1c(O)c(-c2ccccc2)oc2ccccc12 , report its measured MIC.
3.9 to 15.6 µg/mL

# query: MIC of entry C[C@@H]1O[C@@H](Oc2c(-c3cc(O)c(O)c(O)c3)oc3cc(O)cc(O)c3c2=O)[C@H](O)[C@H](O)[C@H]1O
3.9 to 7.8 µg/mL

These data points were gathered from ChEMBL document CHEMBL4311957.
